B1: PhoQ; a variant is named by its letters at X, in order, P23837 (parent)
chain: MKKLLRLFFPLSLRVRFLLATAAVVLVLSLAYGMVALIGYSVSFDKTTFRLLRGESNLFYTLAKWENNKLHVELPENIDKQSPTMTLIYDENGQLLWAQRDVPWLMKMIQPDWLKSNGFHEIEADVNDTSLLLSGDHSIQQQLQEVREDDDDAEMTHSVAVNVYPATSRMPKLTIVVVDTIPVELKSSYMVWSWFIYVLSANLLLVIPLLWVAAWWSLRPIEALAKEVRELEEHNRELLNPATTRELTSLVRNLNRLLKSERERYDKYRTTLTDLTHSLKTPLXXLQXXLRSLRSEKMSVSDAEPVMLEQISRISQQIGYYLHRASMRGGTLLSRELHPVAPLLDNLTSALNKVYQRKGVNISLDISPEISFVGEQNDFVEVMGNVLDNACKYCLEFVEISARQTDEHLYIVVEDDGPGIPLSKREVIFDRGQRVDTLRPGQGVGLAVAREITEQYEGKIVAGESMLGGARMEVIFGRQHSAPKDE

Variants of: B1
Assay: enrichment ratio after two sorts for PhoP signalling (ratio (wild type AVST 3.29)); higher = more functional
Details: with PhoP (E. coli)
In all, about 140,000 sequences were measured (“enrichment ratio after two sorts for PhoP signalling”: median about 0, highest 2% from about 11 on). The full list was thinned out, with the highest values kept by preference.
Quick list: enrichment ratio per entry.

VARIANT | enrichment ratio
AMGQ | 13.7
SWRT | ≤ 0.25
GMLM | 1.25
QRAL | ≤ 0.25
TEGD | ≤ 0.25
SELM | 15.6
DMSC | ≤ 0.25
AMAQ | 12.1
PWML | ≤ 0.25
KAAL | 1.81
PNEV | ≤ 0.25
MEAL | 8.16
NEVI | 4.98
TEVI | 12.8
TGAL | 15.9
NKEG | ≤ 0.25
NMGQ | ≤ 0.25
TAAL | 11.4
FKNI | ≤ 0.25
MDVY | ≤ 0.25
SMAS | 11.6
SMAY | 25.3
DPCV | ≤ 0.25
MIYF | 24.3
TEND | 23.1
PVML | ≤ 0.25
MKAA | ≤ 0.25
SFLM | 4.5
YPSK | ≤ 0.25
MLYD | ≤ 0.25
HGKL | ≤ 0.25
SMRY | ≤ 0.25
WFED | ≤ 0.25
SLLM | 6.84
RGAL | 0.701
MERM | ≤ 0.25
NGAL | ≤ 0.25
NGLW | ≤ 0.25
SGIV | 7.69
NVRS | ≤ 0.25
MIAD | ≤ 0.25
MEGM | ≤ 0.25
YSWE | ≤ 0.25
GALM | 12.1
SMAG | 11.3
NCYQ | ≤ 0.25
SMGD | 1.08
ALFD | ≤ 0.25
MMVI | ≤ 0.25
RTCY | ≤ 0.25
QGML | 6.23
WHCL | ≤ 0.25
GGFA | ≤ 0.25
SMAT | 7.92
SMAI | 13.5
FELW | ≤ 0.25
AMFC | ≤ 0.25
NENM | ≤ 0.25
TEYD | ≤ 0.25
MECS | 11.2
PERI | ≤ 0.25
SMGY | 7.3
MEPF | ≤ 0.25
VVRK | ≤ 0.25
AHGQ | ≤ 0.25
SILM | 0.906
KVEG | ≤ 0.25
MKCS | ≤ 0.25
SMYI | ≤ 0.25
MENM | ≤ 0.25
GFAN | ≤ 0.25
MELA | ≤ 0.25
QRCA | ≤ 0.25
NEAL | ≤ 0.25
NSMN | ≤ 0.25
FEAI | ≤ 0.25
MEYQ | ≤ 0.25
AFDK | ≤ 0.25
GSFE | ≤ 0.25
NMAQ | ≤ 0.25
GYML | ≤ 0.25
DHLG | ≤ 0.25
DECV | 25.8
HILM | ≤ 0.25
DTQQ | ≤ 0.25

The values you see were collected from a collection of fitness landscapes (doi:10.1126/science.1257360).
